Values were extracted from PubChem BioAssay AID504332.

- Subject Of Test: Histone-lysine N-methyltransferase EHMT2 (Homo sapiens) (UniProt Q96KQ7)
- Sequence (Q96KQ7 913-1193 limits assumed): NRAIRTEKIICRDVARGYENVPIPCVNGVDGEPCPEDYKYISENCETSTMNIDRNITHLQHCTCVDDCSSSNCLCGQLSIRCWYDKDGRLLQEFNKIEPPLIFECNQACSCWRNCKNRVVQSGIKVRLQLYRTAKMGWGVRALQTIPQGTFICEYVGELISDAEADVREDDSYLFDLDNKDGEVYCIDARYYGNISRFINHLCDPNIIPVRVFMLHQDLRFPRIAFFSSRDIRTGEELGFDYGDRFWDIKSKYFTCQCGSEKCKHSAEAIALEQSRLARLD
- Assay Info: qHTS Assay for Inhibitors of Histone Lysine Methyltransferase G9a; also: nearly all actives have a fitted effect of over 75% in size
- Condition Description: G9a H3K9 monomethylation, AlphaScreen, 2 h; series mostly up to 59 µM
Hit rate of the full screen: of about 350,000 compounds, about 31,000 (8.9%) were called active. About 15% were inconclusive and are not listed. Calls follow the shape of the dose curve; as a rule, active = well fitted inhibition curve with a large enough effect; inconclusive = small, poorly fitted or top-dose-only effect; inactive = no such curve, though single readings can be large or run the other way. The entries come from a sample that favours actives as a whole.
Could you please pick one outcome from this set? true (1) for active, false (0) for inactive

Data request: # outcome recorded in this test, key = CCc1nccn1S(=O)(=O)c1cc(Br)ccc1Br
Data returned: false (0)

Data request: GET /call?item= CCOc1ccc(-c2cc3nc(C4CCN(C(=O)OC(C)(C)C)CC4)c(C(=O)Nc4ccc(C(=O)OC)cc4)cn3n2)cc1 returns the recorded outcome of this test.
Data returned: false (0)

Data request: Hi team, can someone confirm the assay call for Cc1cc([N+](=O)[O-])nn1Cc1ccc(F)cc1 ?
Data returned: false (0)

Data request: What classification did CN(C)c1ccc(C(CNC(=O)c2ccc(F)cc2)c2c[nH]c3ccccc23)cc1 (stereo unspecified) end up with in this test?
Data returned: true (1)

Data request: Field: outcome | Entry: COc1ccc(-c2cc(C(=O)NC(Cc3c[nH]c4ccccc34)C(=O)O)c(C)o2)cc1OC (stereo unspecified)
Data returned: true (1)

Data request: Recorded test call requested for COc1ccc(-c2cc(-c3ccc(F)cc3)nc3c2COc2ccccc2-3)cc1
Data returned: false (0)

----------
- Subject Of Test: Histone-lysine N-methyltransferase EHMT2 (Homo sapiens) (UniProt Q96KQ7)
- Assay Info: qHTS Assay for Inhibitors of Histone Lysine Methyltransferase G9a; also: nearly all actives have a fitted effect of over 75% in size
- Condition Description: G9a H3K9 monomethylation, AlphaScreen, 2 h; series mostly up to 59 µM
About 31,000 (8.9%) of roughly 350,000 compounds were called active. Inconclusive results (about 15%) are left out. Calls follow the shape of the dose curve; as a rule, active = well fitted inhibition curve with a large enough effect; inconclusive = small, poorly fitted or top-dose-only effect; inactive = no such curve, though single readings can be large or run the other way. Many of the other results were omitted from the sample, so actives are more common in it than they were.
Please answer using one outcome listed in TRUE for active, FALSE for inactive

Data request: Field: outcome | Entry: CC(C)c1ccc(C(=O)NCCCc2ccccc2)cc1
Data returned: FALSE

----------
Hi there, I'd appreciate the recorded activity, negative = inhibition for every entry that follows.
- Subject Of Test: Histone-lysine N-methyltransferase EHMT2 (Homo sapiens) (UniProt Q96KQ7)
- Assay Info: qHTS Assay for Inhibitors of Histone Lysine Methyltransferase G9a; also: nearly all actives have a fitted effect of over 75% in size; as to activity, negative = inhibition: % is scaled to controls: 0 for no effect and ±100 for the full control effect
- Condition Description: G9a H3K9 monomethylation, AlphaScreen, 2 h; series mostly up to 59 µM
Out of some 350,000 compounds screened, about 31,000 (8.9%) were called active. Another 15% or so got no clear call; they are omitted. This is one part of a sample in which actives are shown more often than they occur.

# annotated cases, reported activity, negative = inhibition shown
compound="COC(=O)C1=C(C)Nc2ncnn2C1c1ccco1 (stereo not given)" reported="3.2% [at 12.7 µM] (inactive)"
compound=COC(=O)c1cc(Oc2ccc(S(=O)(=O)N3CCOCC3)cc2[N+](=O)[O-])cc(C(=O)OC)c1 reported="19.1% [at 12.7 µM] (inactive)"

I would be grateful if you could provide activity, negative = inhibition for each of the following entries.
1. O=S(=O)(NCc1ccc(Cl)cc1Cl)c1cccs1
2. CCOC(=O)N1CCN(C(=O)c2ccc(S(=O)(=O)c3ccc(C)cc3)c(NC(C)=O)c2)CC1

Data returned:
14.7% [at 0.501 µM] (inactive)
29.4% [at 0.501 µM] (inactive)

Parameter requested: activity, negative = inhibition. Apply to each item below.
1. O=S(=O)(NCC1OCCc2ccccc21)c1ccccc1 (stereo not given)
2. CCN1CCN(CCNC(=O)c2ccc3c(c2)NC(=O)/C(=C\c2ccc(OC)c(OC)c2)S3)CC1
3. CNS(=O)(=O)c1cccc(C(=O)OCCCC(=O)c2ccccc2)c1
4. COc1ccc(C)cc1NC(=O)CSc1nnc2ccc(-c3ccccn3)nn12
5. O=C(/C=C/c1ccc(Cl)cc1Cl)NCc1ccco1
6. CCOC(=O)[C@H]1[C@H]2COc3ccc(Cl)cc3[C@@H]2N2C(=O)c3cc(C)ccc3NC(=O)[C@@]12C

Data returned:
1: -24.8% [at 2.33 µM] (inactive); 2: 4.92% [at 0.0925 µM] (inactive); 3: -6.99% [at 12.7 µM] (inactive); 4: 2.04% [at 0.501 µM] (inactive); 5: 2.18% [at 0.501 µM] (inactive); 6: 28% [at 2.33 µM] (inactive)
